METHOD NOTES: Mouse pharmacokinetic assay
Type: in vivo, ICR mice
EXPERIMENTAL SETUP: mouse, in vivo, po; mice, i.g., 10 mg/kg, plasma; read-out: AUC
ENDPOINT: AUC

Request: Would you kindly share the measured AUC for CC(C)CN1CCN(c2ccc(-c3c(F)cc(Cl)cc3N3CCCC(n4ncc(C(=O)O)c4C(F)F)C3)cc2)CC1 (single isomer, unassigned) ?
Response: > 10000 ng·h/mL

###

METHOD NOTES: Rat pharmacokinetic assay
Assay type: in vivo, SD rats
EXPERIMENTAL SETUP: rat, in vivo, po; rats, i.g., 10 mg/kg, plasma; read-out: AUC
ENDPOINT: AUC

Request: Would you kindly share the measured AUC for CC(C)CN1CCN(c2ccc(-c3c(F)cc(Cl)cc3N3CCCC(n4ncc(C(=O)O)c4C(F)F)C3)cc2)CC1 (single isomer, unassigned) ?
Response: > 10000 ng·h/mL

###

METHOD NOTES: Stability test in rat liver microsomes
Assay type: in vitro ADME
EXPERIMENTAL SETUP: rat, microsomes, rat liver microsomes 0.5 mg/mL, 1 µM compound, NADPH regeneration system, 37°C
Description: At 37°C, 1 µM of the test compound was incubated with rat liver microsomes (0.5 mg/mL) supplemented with an NADPH regeneration system for 5, 10, 20, 30 and 60 minutes, and then the LC-MS/MS method was used to detect the concentration of the test compound in the resulting sample. The half-life (T1/2) and intrinsic clearance (CLint(mic)) of the compound in rat liver microsome solution were obtained by calculating the remaining percentage of the compound at the corresponding time points.
ENDPOINT: half-life at 1 µM (h)
// note: answer is a bare numeric in h

Request: Would you kindly share the measured half-life at 1 µM for CC(C)CN1CCN2c3cc(F)c(-c4ccc(Cl)cc4N4CCC[C@H](n5ncc(C(=O)O)c5C(F)F)C4)cc3CC[C@@H]2C1 ?
Response: 1.95

Request: Would you kindly share the measured half-life at 1 µM for CC(C)CN1CCN2c3ccc(-c4ccc(Cl)cc4N4CCC[C@@H](n5ncc(C(=O)O)c5C(F)F)C4)cc3CCC2C1 (single isomer, unassigned) ?
Response: 2.53

Request: Would you kindly share the measured half-life at 1 µM for CC(C)CN1CCN2c3cc(F)c(-c4ccc(Cl)cc4N4CCC[C@@H](n5ncc(C(=O)O)c5C(F)F)C4)cc3CC[C@H]2C1 ?
Response: 2.33

Request: Would you kindly share the measured half-life at 1 µM for CC(C)CN1CCN2c3cc(F)c(-c4ccc(Cl)cc4N4CCC[C@@H](n5ncc(C(=O)O)c5C(F)F)C4)cc3CC[C@@H]2C1 ?
Response: 1.87

Request: Would you kindly share the measured half-life at 1 µM for CC(C)CN1CCN2c3ccc(-c4ccc(Cl)cc4N4CCC[C@H](n5ncc(C(=O)O)c5C(F)F)C4)cc3CCC2C1 (single isomer, unassigned) ?
Response: 1.63

###

Provide the recorded microsomal CLint at 1 µM for the entries that follow.
METHOD NOTES: Stability test in rat liver microsomes
Type: in vitro ADME
EXPERIMENTAL SETUP: rat, microsomes, rat liver microsomes 0.5 mg/mL, 1 µM compound, NADPH regeneration system, 37°C; read-out: CLint(mic)
The number alone won't do; follow it with the unit.

Request: Would you kindly share the measured microsomal CLint at 1 µM for CC(C)CN1CCN2c3cc(F)c(-c4ccc(Cl)cc4N4CCC[C@@H](n5ncc(C(=O)O)c5C(F)F)C4)cc3CC[C@@H]2C1 [Compound 6-1] ?
Response: 12.4 µL/min/mg

Request: Would you kindly share the measured microsomal CLint at 1 µM for CC(C)CN1CCN2c3ccc(-c4ccc(Cl)cc4N4CCC[C@H](n5ncc(C(=O)O)c5C(F)F)C4)cc3CCC2C1 (single isomer, unassigned) [Compound 8-2] ?
Response: 14.1 µL/min/mg

Request: Would you kindly share the measured microsomal CLint at 1 µM for CC(C)CN1CCN2c3cc(F)c(-c4ccc(Cl)cc4N4CCC[C@@H](n5ncc(C(=O)O)c5C(F)F)C4)cc3CC[C@H]2C1 [Compound 5-1] ?
Response: 9.87 µL/min/mg

Request: Would you kindly share the measured microsomal CLint at 1 µM for CC(C)CN1CCN2c3cc(F)c(-c4ccc(Cl)cc4N4CCC[C@H](n5ncc(C(=O)O)c5C(F)F)C4)cc3CC[C@@H]2C1 [Compound 6-2] ?
Response: 11.8 µL/min/mg

Request: Would you kindly share the measured microsomal CLint at 1 µM for CC(C)CN1CCN2c3ccc(-c4ccc(Cl)cc4N4CCC[C@@H](n5ncc(C(=O)O)c5C(F)F)C4)cc3CCC2C1 (single isomer, unassigned) [Compound 8-1] ?
Response: 9.13 µL/min/mg

###

METHOD NOTES: Stability test in rat liver microsomes
Assay type: in vitro ADME
EXPERIMENTAL SETUP: rat liver microsomes 0.5 mg/mL, 1 µM compound, NADPH regeneration system, 37°C
Provide the recorded half-life at 1 µM for the entries that follow.
// note: answer is a bare numeric in min

Request: Would you kindly share the measured half-life at 1 µM for CC(C)CN1CCN(c2ccc(-c3c(F)cc(Cl)cc3N3CCCC(n4ncc(C(=O)O)c4C(F)F)C3)cc2)CC1 (single isomer, unassigned) [Compound 1-1] ?
Response: 43.6

Request: Would you kindly share the measured half-life at 1 µM for CC(C)CN1CCN(c2ccc(-c3ccc(Cl)cc3N3CCC[C@@H](n4ncc(C(=O)O)c4C(F)F)C3)cc2)CC1 [Control compound 1, reference compound] ?
Response: 11

###

METHOD NOTES: Stability test in rat liver microsomes
Type: in vitro ADME
EXPERIMENTAL SETUP: rat, microsomes
ENDPOINT: microsomal CLint at 1 µM

Request: Would you kindly share the measured microsomal CLint at 1 µM for CC(C)CN1CCN(c2ccc(-c3c(F)cc(Cl)cc3N3CCCC(n4ncc(C(=O)O)c4C(F)F)C3)cc2)CC1 (single isomer, unassigned) [Compound 1-1] ?
Response: 31.8 µL/min/mg
